Where do these numbers come from? They come from the supplement of paper PMC7287046.

Test system: AM38
Experiment: Chou-Talalay combination index (dimensionless); higher = less synergy (more antagonism)
Details: exposure time: 72 h
Chou-Talalay combination index: recorded values

[
  {
    "molecule": "CO[C@H]1C[C@@H]2CC[C@@H](C)[C@@](O)(O2)C(=O)C(=O)N2CCCC[C@H]2C(=O)O[C@H]([C@H](C)C[C@@H]2CC[C@@H](O)[C@H](OC)C2)CC(=O)[C@H](C)/C=C(\\C)[C@@H](O)[C@@H](OC)C(=O)[C@H](C)C[C@H](C)/C=C/C=C/C=C/1C [Rapamycin] + Cc1cc([C@@H](C)Nc2ccccc2C(=O)O)c2nc(N3CCOCC3)cc(=O)n2c1 [AZD6482]",
    "assayedTarget": "AM38",
    "Chou-Talalay combination index": 0.643
  },
  {
    "molecule": "C#Cc1cccc(Nc2ncnc3cc(OCCOC)c(OCCOC)cc23)c1 [Erlotinib] + O=c1[nH]c2ccccc2n1C1CCN(Cc2ccc(-c3[nH]c4cc5ncnc5cc4nc3-c3ccccc3)cc2)CC1 [Akt inhibitor VIII]",
    "assayedTarget": "AM38",
    "Chou-Talalay combination index": 0.914
  }
]
